protocol_description: Cell viability by propidium iodide, run with the fucosylation assay
Type: cell-based, Chinese hamster
assay_setup: Chinese hamster, 100 μM, CS-9 CHO cells, read-out: Cell Viability max activity at 100 μM
Below: a set of entries, each annotated with reported viability at 3 days, 100 µM.
Kindly provide the numeric value in % only, without the unit symbol.

Recorded results for 2 compounds are shown here.
input_smiles: CC(=O)O[C@H]1[C@H](OC(C)=O)[C@H](CP(=O)(OCOC(=O)C(C)(C)C)OCOC(=O)C(C)(C)C)O[C@@H](C(F)(F)F)[C@H]1OC(C)=O
viability at 3 days, 100 µM, %: 90
//
input_smiles: CC(=O)OCOP(=O)(C[C@H]1O[C@@H](C)[C@@H](OC(C)=O)[C@@H](OC(C)=O)[C@@H]1OC(C)=O)OCOC(C)=O
viability at 3 days, 100 µM, %: 103

// moving on: another record for viability at 3 days, 100 µM
Find the measured viability at 3 days, 100 µM of CC(=O)O[C@@H]1[C@H](OC(C)=O)[C@H](C)O[C@H](CP(=O)(OCOC(=O)C(C)(C)C)OCOC(=O)C(C)(C)C)[C@H]1OC(C)=O and report it.
94

----------
Test system: CS-9 CHO cells
protocol_description: Cell viability by propidium iodide, run with the fucosylation assay
Format: cell-based, Chinese hamster
assay_setup: Cricetulus griseus, 72 h, 3 days
measured_metric: IC50

Recorded results for 2 compounds are shown here.
input_smiles: CC(=O)O[C@H]1[C@H](OC(C)=O)[C@H](CP(=O)(OCOC(=O)C(C)(C)C)OCOC(=O)C(C)(C)C)O[C@@H](C(F)(F)F)[C@H]1OC(C)=O
measured_metric: IC50
recorded_measurement: > 100 µM

input_smiles: CC(=O)O[C@@H]1[C@H](OC(C)=O)[C@H](C)O[C@H](CP(=O)(OCOC(=O)C(C)(C)C)OCOC(=O)C(C)(C)C)[C@H]1OC(C)=O
measured_metric: IC50
recorded_measurement: > 100 µM

Find the measured IC50 of CC(=O)OCOP(=O)(C[C@H]1O[C@@H](C)[C@@H](OC(C)=O)[C@@H](OC(C)=O)[C@@H]1OC(C)=O)OCOC(C)=O and report it.
> 100 µM

----------
Test system: cell surface protein high mannose in CS-9 CHO cells
protocol_description: Assay for Cell Surface Protein High Mannose (FACS with FITC-labeled Concanavilin A)
Format: cell-based, Chinese hamster
assay_setup: Cricetulus griseus, 72 h, 3 days
measured_metric: pIC50
Note on units: pIC50 is unitless, being -log10 of a concentration expressed in mol/L.

input_smiles: CC(=O)OC[C@H]1O[C@H](CP(=O)(OCOC(=O)C(C)(C)C)OCOC(=O)C(C)(C)C)[C@@H](OC(C)=O)[C@@H](OC(C)=O)[C@@H]1OC(C)=O
subject_of_test: cell surface protein high mannose in CS-9 CHO cells
measured_metric: pIC50
recorded_measurement: 4.48

Find the measured pIC50 of CC(=O)N[C@@H]1[C@@H](OC(C)=O)[C@H](OC(C)=O)[C@@H](COC(C)=O)O[C@@H]1CP(=O)(OCOC(=O)C(C)(C)C)OCOC(=O)C(C)(C)C and report it.
5.47

----------
Below: a set of entries, each annotated with reported viability at 3 days, 100 µM.
protocol_description: Cell viability by propidium iodide, run with the high mannose assay
Type: cell-based, Chinese hamster
assay_setup: Chinese hamster, 100 μM, CS-9 CHO cells, read-out: Cell Viability max activity at 100 μM
Kindly provide the numeric value in % only, without the unit symbol.

compound: CC(=O)N[C@@H]1[C@@H](OC(C)=O)[C@H](OC(C)=O)[C@@H](COC(C)=O)O[C@@H]1CP(=O)(OCOC(=O)C(C)(C)C)OCOC(=O)C(C)(C)C [Example 5]
unit_symbol: %
viability at 3 days, 100 µM: 88

// moving on: another record for viability at 3 days, 100 µM
Find the measured viability at 3 days, 100 µM of CC(=O)OC[C@H]1O[C@H](CP(=O)(OCOC(=O)C(C)(C)C)OCOC(=O)C(C)(C)C)[C@@H](OC(C)=O)[C@@H](OC(C)=O)[C@@H]1OC(C)=O [Example 4] and report it.
92
